These data points were gathered from patent US20220073617A1.

Biological target: T1, monovalent hVISTA-ECD (human VISTA extracellular domain with His tail) (human, UniProt Q9H7M9 33-193)
T1 construct: analyte flowed over captured antibody; also called huVISTA-His
T1 sequence (Q9H7M9 other isoform, or with tags, fused parts or gaps limits assumed): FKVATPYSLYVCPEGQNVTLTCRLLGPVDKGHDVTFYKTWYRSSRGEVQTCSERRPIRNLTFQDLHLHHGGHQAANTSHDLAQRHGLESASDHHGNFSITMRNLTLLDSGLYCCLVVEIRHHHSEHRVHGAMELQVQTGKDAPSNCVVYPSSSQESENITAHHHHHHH
Assay: SPR, pH 7.4
measurementKind: koff

P1-061528 (41F11 NGS mut VK_A64G/R91A) (antibody, V domains shown, also called P1-061528-2) VH: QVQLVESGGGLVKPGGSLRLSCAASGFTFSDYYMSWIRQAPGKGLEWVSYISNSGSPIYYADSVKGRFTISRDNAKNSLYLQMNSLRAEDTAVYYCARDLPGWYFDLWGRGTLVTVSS VL: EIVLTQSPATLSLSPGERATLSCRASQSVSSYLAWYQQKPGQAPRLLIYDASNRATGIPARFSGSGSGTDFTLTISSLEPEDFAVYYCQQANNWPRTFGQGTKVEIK ... 0.00017 s⁻¹
P1-063001 (41F11_LC_Mutant: V29D/A64G/R91T) (antibody, V domains shown, also called P1-063001-5; P1-063001-6) VH: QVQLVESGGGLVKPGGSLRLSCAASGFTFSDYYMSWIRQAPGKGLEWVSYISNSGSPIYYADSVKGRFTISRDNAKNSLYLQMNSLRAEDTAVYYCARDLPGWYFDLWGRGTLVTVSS VL: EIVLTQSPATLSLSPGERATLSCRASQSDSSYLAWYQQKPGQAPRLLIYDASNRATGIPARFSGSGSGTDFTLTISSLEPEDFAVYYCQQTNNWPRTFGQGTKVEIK ... 0.00013 s⁻¹
P1-065333 (41F11_VH_T28P/Y50W/S55E/L96E/Y100E VK_A64G) (antibody, human IgG1, kappa, V domains shown, IgG1.3; also called P1-065333-1; VISTA.4 pH-independent progeny) VH: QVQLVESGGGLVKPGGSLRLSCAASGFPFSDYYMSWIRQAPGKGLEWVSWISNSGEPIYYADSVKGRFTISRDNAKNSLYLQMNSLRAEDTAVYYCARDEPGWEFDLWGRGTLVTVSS VL: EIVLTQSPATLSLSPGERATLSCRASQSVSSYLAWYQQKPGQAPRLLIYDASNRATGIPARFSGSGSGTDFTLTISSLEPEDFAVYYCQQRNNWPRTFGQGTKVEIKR ... 0.00093 s⁻¹
P1-064490 (41F11_VH_F27EY50EL96E) (antibody, V domains shown, Kabat positions; also called P1-064490-1; P1-064490-2) VH: QVQLVESGGGLVKPGGSLRLSCAASGETFSDYYMSWIRQAPGKGLEWVSEISNSGSPIYYADSVKGRFTISRDNAKNSLYLQMNSLRAEDTAVYYCARDEPGWYFDLWGRGTLVTVSS VL: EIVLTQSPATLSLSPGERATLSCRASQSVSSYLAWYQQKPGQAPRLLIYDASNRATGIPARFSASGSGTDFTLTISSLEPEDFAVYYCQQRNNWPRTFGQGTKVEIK ... 0.0032 s⁻¹
P1-065064 (41F11_LC_Mutant: V29D/A64G/R91T) (antibody, V domains shown, Same printed description as P1-063001 under another ID; also called P1-065064-1) VH: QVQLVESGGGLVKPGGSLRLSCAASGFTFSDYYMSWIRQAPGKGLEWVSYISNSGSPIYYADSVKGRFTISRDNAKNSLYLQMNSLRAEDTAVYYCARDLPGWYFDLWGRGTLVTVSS VL: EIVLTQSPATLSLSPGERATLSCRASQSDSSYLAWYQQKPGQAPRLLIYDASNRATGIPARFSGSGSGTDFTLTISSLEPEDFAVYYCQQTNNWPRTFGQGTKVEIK ... 0.00012 s⁻¹
P1-065326 (41F11_VH_D31E/Y50W/S55E/L96E/Y100E VK_A64G) (antibody, V domains shown, Kabat positions; also called P1-065326-1) VH: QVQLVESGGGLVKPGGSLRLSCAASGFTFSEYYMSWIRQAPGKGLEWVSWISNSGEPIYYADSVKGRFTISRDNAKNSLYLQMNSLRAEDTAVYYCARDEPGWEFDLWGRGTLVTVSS VL: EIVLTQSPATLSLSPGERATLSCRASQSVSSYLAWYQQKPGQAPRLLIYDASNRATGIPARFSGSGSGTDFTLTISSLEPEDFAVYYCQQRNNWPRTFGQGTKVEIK ... 0.00033 s⁻¹
